Ki values for 5-hydroxytryptamine receptor 2A (Homo sapiens, UniProt P28223) compiled from several publications are listed below.
metric: Ki (nM)

{"compound": "COc1ccc(N2Cc3cc(Cl)c(Cl)c(C)c3C2=O)cc1OCCN1CCC(C)CC1", "u": "nM", "recordedValue": 398}
{"compound": "Cn1cncc1-c1c[nH]c2ccc(F)c(F)c12", "u": "nM", "recordedValue": 8910}
{"compound": "Clc1ccc(-c2cc(Cl)cc3c2N2CCNCCC2C3)c(Cl)c1 (stereo not drawn)", "u": "nM", "recordedValue": 426}
{"compound": "COc1ccc2c(c1)CC(CN1CCN(c3ccccn3)CC1)CC2=O (racemic)", "u": "nM", "recordedValue": 692}
{"compound": "O=C([C@@H]1CCCN1C(=O)CCCCN1CCN(c2ccccc2-c2ccccc2)CC1)N1CCCCC1", "u": "nM", "recordedValue": 376}
{"compound": "Cc1nc2ccccn2c1C(=O)N1CCN(CCc2ccc(F)cc2F)CC1", "u": "nM", "recordedValue": 3.5}

(1) CN1CC(C)(C)N2c3c(cccc31)[C@@H]1CN(CCCC(=O)c3ccc(F)cc3)CC[C@@H]12
(2) O=S(=O)(c1ccccc1)C1(F)CCN(CCc2ccc(F)cc2F)CC1
(3) Cc1cc2c(cc1Br)N(C(=O)Nc1cccnc1)CC2
(4) c1ccc(-c2[nH]c3ccccc3c2C2CNCCO2)cc1 (stereo not drawn)
Request: Sort by Ki, descending. Rank them, then answer with their labels in that order.
Response: 3, 4, 1, 2

(P) Fc1cccc2c([C@@H]3CNCC[C@H]3F)c(-c3ccccc3)[nH]c12
(Q) O=S(=O)(NCCCN1CCN(c2cccc(Cl)c2Cl)CC1)c1cnc2ccc(Cl)cc2c1
Request: Lower Ki: P or Q ? Please indicate the selected item by its label.
Response: P

(A) Clc1ccc2c(c1)C(N1CCN(CCc3ccccc3)CC1)=Nc1cccnc1N2
(B) O=C1NCc2cc(F)c(OCCCN3CCN(c4cccc5ccc(F)cc45)CC3)cc21
(C) O=C1CCc2ccc(CCCCCN3CCN(c4cccc(Cl)c4Cl)CC3)nc2N1
Request: Arrange these 3 compounds in increasing order of Ki. Rank them, then answer with their labels in that order.
Response: C, B, A

----------
Ki values for 5-hydroxytryptamine receptor 2A (Homo sapiens, UniProt P28223) compiled from several publications are listed below.

The cases that follow already have their Ki on record.
{"compound": "Cc1cc(OCCCCN2CCOCC2)c2c(C)cc(=O)oc2c1", "recordedValue": "> 10 µM"}
{"compound": "CCCNC(=O)N1OCC2CSc3ccc(F)cc3C21 (stereo not given)", "recordedValue": "> 10 µM"}
{"compound": "COc1ccc(N2CC=C(c3ccc(OC)c(OCCN4CCCCC4)c3)C2=O)cc1F", "recordedValue": "> 3.16 µM"}
{"compound": "CCn1cncc1-c1c[nH]c2ccc(OC(F)(F)F)cc12", "recordedValue": "> 10 µM"}

Turning to the following compound.
Request: Which Ki is listed for `C[C@H]1CN(C(=O)c2ccc(-c3cccc(OC(F)(F)F)c3)cc2)CCN1C(=O)c1ccc2cc[nH]c2c1` ?
Response: > 10 µM

----------
Ki values for 5-hydroxytryptamine receptor 2A (Homo sapiens, UniProt P28223) compiled from several publications are listed below.
metric: Ki (nM)

The cases that follow already have their Ki on record.
{"molecule": "CC1CCN(CCc2ccc(OCCCN3CCC(c4noc5cc(F)ccc45)CC3)cc2)CC1", "u": "nM", "Ki": 42.9}
{"molecule": "O=S(=O)(NCCCCN1CCN(c2cccc(Cl)c2Cl)CC1)c1cc2ccccc2cn1", "u": "nM", "Ki": 35}
{"molecule": "O=c1n(CC2CCC(CN3CCN(c4cccc(Cl)c4)CC3)CC2)nc2ccccn12 (stereo not drawn)", "u": "nM", "Ki": 493}
{"molecule": "CS(=O)(=O)Nc1cc(F)ccc1C(=O)CCCN1CC[C@H]2[C@@H](C1)c1cccc3c1N2CCCS3", "u": "nM", "Ki": 7.5}
{"molecule": "CCOc1ccccc1-c1cc(Cl)cc2cc3n(c12)CCNCC3", "u": "nM", "Ki": 32}
{"molecule": "CC(O)c1ccccc1S(=O)(=O)c1ccc(/C=C/c2ccc(F)cc2)cc1 (racemic)", "u": "nM", "Ki": 0.07}
{"molecule": "COc1ccccc1N1CCN(CCCOc2ccc3c(C)cc(=O)oc3c2C(C)=O)CC1", "u": "nM", "Ki": 8}
{"molecule": "Nc1ccccc1C(=O)CCCN1CC[C@H]2[C@@H](C1)c1cccc3c1N2CCC3", "u": "nM", "Ki": 0.8}
{"molecule": "O=C(CCCN1CC[C@H]2[C@@H](C1)c1cccc3c1N2CCCS3)c1ccccc1", "u": "nM", "Ki": 2.7}
{"molecule": "O=C1CCc2ccc(OCCCCN3CCN(c4cccc5c4CCCO5)CC3)nc2N1", "u": "nM", "Ki": 1.3}

(A) COc1ccc(CCN(CCCc2ccccc2Br)CCc2ccc3c(c2)OCO3)cc1OC
(B) CCOC(=O)c1oc2c(c1C)C(=O)CC(CN1CCC(C(=O)c3ccc(F)cc3)CC1)C2 (stereo not drawn)
Request: Sorting by Ki in descending order, would A or B appear first? Please indicate the selected item by its label.
Response: A
(A: 54 nM, B: 21.9 nM)

(A) Cc1cccc(N2CCN(CCCCNC(=O)c3cc4ccccc4cn3)CC2)c1
(B) Cc1ccc2on(C[C@@H]3C[C@H]4c5ccccc5Oc5ccc(Br)cc5[C@H]4O3)c2c1
Request: Sorting by Ki in descending order, would A or B appear first? Please indicate the selected item by its label.
Response: B

(I) O=C1CCc2ccc(OCCCCN3CCN(c4cccc5cccc(F)c45)CC3)nc2N1
(II) CN1CCCC(c2c(-c3ccccc3)[nH]c3ccccc23)C1 (stereo not drawn)
(III) O=C1CCc2ccc(OCCCCN3CCN(c4cccc(Cl)c4Cl)CC3)nc2N1
Request: Sort by Ki, descending. Rank them, then answer with their labels in that order.
Response: II, I, III
(II: 4.7 nM, I: 0.67 nM, III: 0.13 nM)

----------
pKi values for 5-hydroxytryptamine receptor 2A (Homo sapiens) compiled from several publications are listed below.
pKi: −log10 of the molar value.
metric: pKi

The cases that follow already have their pKi on record.
{"compound": "O=C(NC1CCc2cc(CCN3CCN(c4nsc5ccccc45)CC3)ccc21)c1cccnc1 (stereo unspecified)", "pKi": 9.17}
{"compound": "Oc1ccc(-c2ccc(CNCCc3c[nH]c4cc(F)ccc34)o2)cc1", "pKi": 7.02}

(1) CC(=O)N1CCC(C)c2cc(Cl)cc(CCN3CCN(c4nsc5ccccc45)CC3)c21 (stereo unspecified)
(2) O=S1(=O)c2cccc3cccc(c23)N1CCCCCCN1CCN(c2cccc(Cl)c2Cl)CC1
(3) CC(=O)c1c(OCCCCN2CCN(c3ccccc3Br)CC2)ccc2c(C)cc(=O)oc12
Request: Arrange these 3 compounds in increasing order of pKi. Rank them, then answer with their labels in that order.
Response: 2, 3, 1
(2: 6.75, 3: 8.00, 1: 9.51)

----------
Ki values for 5-hydroxytryptamine receptor 2A (Homo sapiens) compiled from several publications are listed below.
metric: Ki (nM)

(1) CCOC(=O)c1ccc2on(C[C@@H]3C[C@H]4c5ccccc5Oc5ccc(Br)cc5[C@H]4O3)c2c1
(2) Fc1ccc2c(C3CCN(CCCOc4ccc(CN5CCOCC5)cc4)CC3)noc2c1
(3) COc1ccccc1Cc1c(N)nc(SCCN2CCN(Cc3ccccc3C(F)(F)F)CC2)nc1N
Request: # order the compounds above by Ki, highest value first Rank them, then answer with their labels in that order.
Response: 1, 3, 2

----------
Ki values for 5-hydroxytryptamine receptor 2A (Homo sapiens) compiled from several publications are listed below.
metric: Ki (nM)

The cases that follow already have their Ki on record.
{"compound": "O=S(=O)(c1ccccc1)c1ccc(/C=C/c2ccc(F)cc2F)cc1", "u": "nM", "Ki": 1.32}
{"compound": "COc1cccc(Cc2c(N)nc(SCCN3CCN(Cc4cccc(C(F)(F)F)c4)CC3)nc2N)c1", "u": "nM", "Ki": 44.6}
{"compound": "CN(C)CCN(Cc1ccc(-c2ccc(CNCCc3ccccc3)cc2)cc1)C(=O)/C=C/c1ccccc1", "u": "nM", "Ki": 398}

(P) O=C(NCCCCN1CCN(c2ncccn2)CC1)c1cc2ccccc2cn1
(Q) O=S(=O)(c1ccc(/C=C/c2ccc(F)cc2)nc1)c1ccccc1F
(R) COc1ccccc1N1CCN(CCCNC(=O)NN(Cc2ccccc2)c2ccccc2)CC1
(S) Cc1ccc(N2CCN(Cc3nc4ccccc4[nH]3)CC2)cc1C
Request: Sort by Ki, descending. Rank them, then answer with their labels in that order.
Response: P, S, R, Q

(P) CCOc1ccccc1-c1cc(Cl)cc2c1N1CCNCCC1C2 (stereo in doubt; 22a)
(Q) O=C(NCCCCN1CCN(c2ccccn2)CC1)c1ccc2ccccc2n1
Request: Sorting by Ki in descending order, would P or Q appear first? Please indicate the selected item by its label.
Response: P
